For each record, write down the corresponding Activity.
Test system: SN12C
Test: Cytotoxicity against human SN12C cells assessed as cellular growth at 10 uM by SRB assay
Assay type: functional
Lab book: enter the figure in %, no units written.

// lookup Activity for N#Cc1ccc(NC(=O)c2sc3nc4c(cc3c2N)C(=O)CCC4)cc1
98.35

Quick one: Activity for O=c1/c(=C/c2ccccc2Cl)sc2nc(-c3ccccc3)nn12 ?
94.39

# get_value(readout='Activity', item= Nc1c(C(=O)Nc2cccc(Cl)c2)sc2nc3c(cc12)C(=O)CCC3 )
54.42

Any idea what Activity was measured for COc1cc(/C=c2/sc3nc4ccccc4n3c2=O)cc(I)c1O ?
101.23

Please give the measured Activity for this compound: Cc1ccc(CNC(=O)c2[nH]c3ccccc3c2Cl)cc1
99.14

Which Activity value is on record for Cc1ccc(NC(=O)c2sc3nc(-c4cccs4)ccc3c2N)cc1C ?
100.59

Consider the compound O=C(NCc1ccc(Cl)cc1)c1[nH]c2ccccc2c1Cl and give its measured Activity.
99.33

Suppose we examine the compound Clc1ccc(-c2nc(-c3cccs3)no2)cc1 ; what Activity value has been reported?
97.08

Would you mind telling me what Activity value was observed for CC1(C)CCc2cc(-c3ccn(S(=O)(=O)c4cccc(C(F)(F)F)c4)n3)ccc2O1 ?
91.59

Suppose we examine the compound COc1ccc2[nH]c(C(=O)NCc3ccccc3)cc2c1 ; what Activity value has been reported?
97.3

Looking for the measured Activity of O=C(Nc1ccc2oc(=O)ccc2c1)c1ccc(-c2ccc(Br)cc2)o1 , can you help?
99.06

----------
Test system: NCI-H460
Test: Cytotoxicity against human NCI-H460 cells assessed as cellular growth at 10 uM by SRB assay
Type: functional
Answer each item with its documented Activity.
Write down the value, and be sure its unit follows.

What Activity value was documented for this compound, Clc1ccc(-c2nc(-c3cccs3)no2)cc1 ?
110.35%

Entry under review: Oc1ccccc1-c1nc(-c2cccs2)no1 . Reported Activity?
95.65%

// query Activity value for entry Cc1ccc(S(=O)(=O)Oc2ccc(-c3cnc4ccccc4n3)cc2)cc1
97%

Quick check: Activity of COc1ccc2nc(NC(=O)c3ccc(F)cc3)sc2c1 ?
19.56%

Any idea what Activity was measured for O=C(Nc1nc2ccccc2s1)c1ccc(F)cc1 ?
69.18%

Using the record for O=S(=O)(Oc1ccc(-c2cnc3ccccc3n2)cc1)c1ccc2ccccc2c1 , report its Activity.
96.28%

Recorded Activity of O=c1/c(=C/c2ccccc2)sc2nc(-c3ccc(Cl)cc3Cl)nn12 , please.
106.69%

GET /values?readout=Activity&item= COc1ccc2[nH]c(C(=O)NCc3ccccc3)cc2c1
110.92%

What value of Activity has been recorded for this entry: O=C(NCCc1ccccc1)c1cc2cccc([N+](=O)[O-])c2[nH]1
101.23%

Request the reported Activity associated with Cc1cc(C)c(NC(=O)c2sc3nc4c(cc3c2N)C(=O)CC(C)(C)C4)c(C)c1
102.63%

Please look up its Activity: Cc1ccc(CNC(=O)c2[nH]c3ccccc3c2Cl)cc1
88.87%

----------
System: T47D
Test: Cytotoxicity against human T47D cells assessed as cellular growth at 10 uM by SRB assay
Type: functional
attribute-measured: Activity (%)
The answer is to be given in %; state only the numeric part.

// Activity lookup, key: N#Cc1ccc(-n2nnc3ccccc32)cc1C#N
86.31

Dear colleague, I am looking for the recorded Activity of the following compound: Cc1cccc(-c2nc(-c3cccs3)no2)c1
53.59

Which value of Activity has been reported for Cc1ccc(NC(=O)c2sc3nc4c(cc3c2N)C(=O)CCC4)cc1Cl in the records?
105.09

Recorded Activity for N#Cc1ccc(NC(=O)c2sc3nc4c(cc3c2N)C(=O)CCC4)cc1 , please?
95.85

Entry Cc1ccc(S(=O)(=O)NC2=NC(=O)/C(=C\c3ccccc3)S2)cc1 has what Activity?
100.5

Please report the recorded Activity for O=C(NCc1ccc(Cl)cc1)c1[nH]c2ccccc2c1Cl .
96.29

Activity lookup needed for CC1(C)CC(=O)c2cc3c(N)c(C(=O)Nc4ccc(F)cc4)sc3nc2C1 , thanks.
111.5

Entry Cc1cc(C)c(NC(=O)c2sc3nc4c(cc3c2N)C(=O)CCC4)c(C)c1 : reported Activity = ?
40.64

Query: Activity; subject: Cc1ccccc1NC(=O)c1sc2nc3c(cc2c1N)C(=O)CCC3
43.92

Item Clc1cccc(-c2nc(-c3cccs3)no2)c1 has what recorded Activity?
56.93

Entry under review: Nc1c(C(=O)Nc2ccccc2)sc2nc3c(cc12)C(=O)CCC3 . Reported Activity?
47.06
